Can you tell me MIC for the items I'm about to list?
- Test system: A. baumannii CDC-0045
- test: microbe, parasite or virus in culture
- Assay type: cell-based
- details: Acinetobacter baumannii, CDC0045, read-out: MIC, A. baumannii CDC-0045

Can you look up the measured MIC of O=C(NCCN1CCN(C(=O)NC(C(=O)N[C@H]2Cc3ccc(F)c(C(=O)O)c3OB2O)c2cc(F)c(O)c(O)c2Cl)C(=O)C1=O)c1cccnc1 (some centres unmarked) for me?
< 1 µg/mL

Can you look up the measured MIC of O=C(O)c1c(F)ccc2c1OB(O)[C@@H](NC(=O)C(NC(=O)N1CCN(Cc3ccc(O)c(O)c3Cl)C(=O)C1=O)c1ccc(P(=O)(O)O)cc1)C2 (some centres unmarked) for me?
< 1 µg/mL

Can you look up the measured MIC of CN(CCN1CCN(C(=O)N[C@@H](C(=O)N[C@H]2Cc3ccc(F)c(C(=O)O)c3OB2O)c2cc(F)c(O)c(O)c2Cl)C(=O)C1=O)Cc1nccs1 for me?
< 1 µg/mL

Can you look up the measured MIC of O=C(CN1CCN(C(=O)NC(C(=O)N[C@H]2Cc3ccc(F)c(C(=O)O)c3OB2O)c2cc(F)c(O)c(O)c2Cl)C(=O)C1=O)Nc1ccncc1 (some centres unmarked) for me?
2 to 4 µg/mL

Can you look up the measured MIC of O=C(O)c1c(F)ccc2c1OB(O)[C@@H](NC(=O)[C@H](NC(=O)N1CCN(C3CCN(C(=O)c4ccc(F)c(O)c4)CC3)C1=O)c1cc(F)c(O)c(O)c1Cl)C2 (single isomer, unassigned) for me?
< 1 µg/mL

Can you look up the measured MIC of O=C(CN1CCN(C(=O)NC(C(=O)N[C@H]2Cc3ccc(F)c(C(=O)O)c3OB2O)c2cc(F)c(O)c(O)c2Cl)C(=O)C1=O)Nc1ccc(O)cc1 (some centres unmarked) for me?
< 1 µg/mL

Can you look up the measured MIC of O=C(O)c1c(F)ccc2c1OB(O)[C@@H](NC(=O)C(NC(=O)N1CCN(CC3CCN(C(=O)c4cccc(O)c4)CC3)C(=O)C1=O)c1cc(F)c(O)c(O)c1Cl)C2 (some centres unmarked) for me?
< 1 µg/mL

Can you look up the measured MIC of O=C(O)c1c(F)ccc2c1OB(O)[C@@H](NC(=O)[C@H](NC(=O)N1CCN(C3CCN(C(=O)c4ccncc4)CC3)C1=O)c1cc(F)c(O)c(O)c1Cl)C2 for me?
< 1 µg/mL

Can you look up the measured MIC of O=C(O)c1c(F)ccc2c1OB(O)[C@@H](NC(=O)C(NC(=O)N1CCN(CCCNC(=O)[C@@H]3CCCN3)C(=O)C1=O)c1cc(F)c(O)c(O)c1Cl)C2 (some centres unmarked) for me?
2 to 4 µg/mL

Can you look up the measured MIC of O=C(O)c1c(F)ccc2c1OB(O)[C@@H](NC(=O)[C@H](NC(=O)N1CCN(C3CCN(C(=O)Nc4cccc(O)c4Cl)CC3)C(=O)C1=O)c1cc(F)c(O)c(O)c1Cl)C2 for me?
< 1 µg/mL

Can you look up the measured MIC of O=C(O)c1c(F)ccc2c1OB(O)[C@@H](NC(=O)[C@@H](NC(=O)N1CCN(C3CCN(C(=O)c4ccc(O)cc4)CC3)C1=O)c1cc(F)c(O)c(O)c1Cl)C2 (single isomer, unassigned) for me?
32 to 64 µg/mL
